These entries and their values trace back to patent US20250011468A1.

# measured target: human plasma-derived FIXa (Haematologic Technologies Inc) (human, UniProt P00740 47-191; P00740 227-461)
# Sequence (P00740 47-191, chain 1 of 2): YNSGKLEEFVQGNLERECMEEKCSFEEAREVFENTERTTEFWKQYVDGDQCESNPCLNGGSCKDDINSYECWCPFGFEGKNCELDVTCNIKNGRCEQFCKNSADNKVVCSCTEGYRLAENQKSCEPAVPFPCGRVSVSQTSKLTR
# Sequence (P00740 227-461, chain 2 of 2): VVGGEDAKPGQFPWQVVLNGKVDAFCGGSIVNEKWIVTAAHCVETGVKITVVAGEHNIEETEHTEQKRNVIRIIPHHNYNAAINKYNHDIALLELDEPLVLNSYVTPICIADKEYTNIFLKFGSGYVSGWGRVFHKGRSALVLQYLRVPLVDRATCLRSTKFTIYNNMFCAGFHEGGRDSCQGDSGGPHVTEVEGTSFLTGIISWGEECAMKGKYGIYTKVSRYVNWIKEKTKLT
# experiment description: cell-based or functional assay
measure: Stimulation index at 800 nM OA antibody (fold)
Supply the numeric figure in fold, leaving out any unit text.

Sample mAb4-5368 (monovalent one-armed version of mAb1-6606) (antibody, V domains shown) VH: EVQLVQSGAEVKKPGESLRISCKGSGYSFRPYWIGWVRQMPGKGLEWMGMIDPSDSYTDYGPSFEGHVTISADKSISTAYLQWSSLKASDTAMYYCARVRIRAGAFDIWGQGTMVTVSS VL: DIVMTQSPLSLPVTPGEPASISCRSSQSLLHSTWYNYLNWYLQKPGQSPQLLIYLGSNRASGVPDRFSGSGSGTDFTLKISRVEAEDVGVYYCMQALHIPYTFGQGTKLEIK — what was its Stimulation index at 800 nM OA antibody?
133

Next binder up: mAb4-5342 (monovalent one-armed version of mAb1-6586) (antibody, V domains shown) VH: EVQLVQSGAEVKKPGESLRISCKGSGYRFTSYWIGWVRQMPGKGLEWMGMIDPTDSYTDYGPSFHGHVTISADKSISTAYLQWSSLKASDTAMYYCARMRIMSGAFDIWGQGTMVTVSS VL: DIVMTQSPLSLPVTPGEPASISCRSSQSLLHSTWYNYLNWYLQKPGQSPQLLIYLGKNRASGVPDRFSGSGSGTDFTLKISRVEAEDVGVYYCMQVLHIPYTFGQGTKLEIK
94
